- ASSAY EXPLANATION: APR_HepG2_MitoMembPot_1hr: Apredica 1-hour HepG2 Assay for Mitochondrial Membrane Potential (AID 2282675)
- EXPERIMENTAL CONTEXT: imaging, actives raise or lower the signal
- Procedure: APR_HepG2_1hr is a cell-based, multiplexed-readout assay that uses HepG2, a human liver cell line, with measurements taken at 1 hour after chemical dosing in a 384-well plate.APR_HepG2_MitoMembPot_1hr is one of 10 assay component(s) measured or calculated from the APR_HepG2_1hr assay. […] This assay endpoint, APR_HepG2_MitoMembPot_1hr, was analyzed with bidirectional fitting relative to DMSO as the negative control and baseline of activity. […]
Calls of active or inactive are those of the source. How the source made its calls: active means hit-call score of the fitted dose curve at least 0.9, where 1 is the maximum; inactive means score below 0.9.
Outcome field: choose from active, inactive

Solved entries:
COMPOUND: C[N+]1(C)CCCCC1
ASSIGNED LABEL: inactive
//
COMPOUND: Cc1cc(C2CC2)nc(Nc2ccccc2)n1
ASSIGNED LABEL: active
//
COMPOUND: CC(C)=CC1C(C(=O)OCN2C(=O)C3=C(CCCC3)C2=O)C1(C)C (configuration not stated)
ASSIGNED LABEL: inactive
//
COMPOUND: CNc1cnn(-c2cccc(C(F)(F)F)c2)c(=O)c1Cl
ASSIGNED LABEL: inactive
//
COMPOUND: CCC(=NOC/C=C/Cl)C1=C(O)CC(C2CCOCC2)CC1=O (configuration not stated)
ASSIGNED LABEL: inactive
//
COMPOUND: Cc1ccn2nc(S(=O)(=O)Nc3c(F)cccc3F)nc2n1
ASSIGNED LABEL: inactive

Please let me know the test result on file for `CNC(=O)ON=C(C)SC` .
inactive

Then what about the compound CCOP(=O)(NC(C)C)Oc1ccc(SC)c(C)c1 (configuration not stated) ?
inactive

// repeat for `CC(C)N(C(=O)SCC(Cl)=C(Cl)Cl)C(C)C` and report
inactive

// next record `CC1(C(=O)Nc2ccc(O)c(Cl)c2Cl)CCCCC1`
inactive

Same thing, different compound: `CON=C(C(=O)OC)c1ccccc1CON=C(C)c1cccc(C(F)(F)F)c1`
inactive

Okay, and `CCCOc1nn(C(=O)NS(=O)(=O)c2ccccc2C(=O)OC)c(=O)n1C` ?
inactive
